# Protocol summary: Clearance in Sprague-Dawley rat at 2.5 mg/kg, iv
# Test parameters: in vivo
Measure: clearance (mL/min/kg)

> print(dat)
                                   compound  reading
1  N#Cc1cccc(-c2ccc3ncc(-c4cc(F)cc(F)c4)c(N4CCC(N)CC4)c3c2)c1O [PALTUSOTINE]      9.1

----------
# Measurement target: Voltage-gated inwardly rectifying potassium channel KCNH2 (Homo sapiens)
# Sequence (Q12809 whole entry): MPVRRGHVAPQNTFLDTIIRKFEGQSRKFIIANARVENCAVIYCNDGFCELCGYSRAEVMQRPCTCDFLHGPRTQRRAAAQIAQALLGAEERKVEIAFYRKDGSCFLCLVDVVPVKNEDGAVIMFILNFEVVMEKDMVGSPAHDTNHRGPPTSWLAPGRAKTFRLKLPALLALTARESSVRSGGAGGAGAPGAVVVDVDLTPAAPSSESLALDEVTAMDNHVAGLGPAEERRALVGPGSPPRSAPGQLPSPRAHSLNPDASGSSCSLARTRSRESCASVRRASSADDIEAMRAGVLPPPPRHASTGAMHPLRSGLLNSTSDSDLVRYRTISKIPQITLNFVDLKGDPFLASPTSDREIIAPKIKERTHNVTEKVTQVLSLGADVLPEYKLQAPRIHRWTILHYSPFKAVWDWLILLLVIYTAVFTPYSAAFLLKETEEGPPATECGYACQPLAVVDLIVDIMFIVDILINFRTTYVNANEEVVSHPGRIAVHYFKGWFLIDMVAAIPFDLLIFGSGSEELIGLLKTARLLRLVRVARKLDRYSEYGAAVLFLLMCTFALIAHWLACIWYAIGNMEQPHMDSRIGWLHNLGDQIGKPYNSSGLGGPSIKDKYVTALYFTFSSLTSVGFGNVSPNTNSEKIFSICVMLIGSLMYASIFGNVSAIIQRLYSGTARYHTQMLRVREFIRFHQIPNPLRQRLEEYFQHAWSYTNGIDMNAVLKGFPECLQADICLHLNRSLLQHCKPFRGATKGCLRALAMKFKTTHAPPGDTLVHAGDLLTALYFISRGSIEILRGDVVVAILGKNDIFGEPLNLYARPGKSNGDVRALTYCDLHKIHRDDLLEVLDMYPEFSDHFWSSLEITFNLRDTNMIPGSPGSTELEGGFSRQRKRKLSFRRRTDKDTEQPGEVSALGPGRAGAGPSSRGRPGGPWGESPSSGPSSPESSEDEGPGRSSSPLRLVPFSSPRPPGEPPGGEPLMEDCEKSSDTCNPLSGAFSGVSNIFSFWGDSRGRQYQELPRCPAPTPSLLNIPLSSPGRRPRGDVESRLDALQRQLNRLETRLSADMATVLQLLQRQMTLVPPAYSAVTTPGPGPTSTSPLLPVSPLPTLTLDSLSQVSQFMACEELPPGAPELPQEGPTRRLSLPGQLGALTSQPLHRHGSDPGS
# Protocol summary: Inhibition of hERG by fluorescence polarization assay
# Format: toxicity
pIC50: −log10 of the molar value.
Measure: pIC50

> print(dat)
                                   molecule  comparison.symbol  reading
1  NC1CCN(c2c(-c3cc(F)cc(F)c3)cnc3ccc(-c4cccc(O)c4)cc23)CC1                  >     6.00
2  N#Cc1cc(F)cc(-c2ccc3ncc(-c4cc(F)cc(F)c4)c(N4CCC(N)CC4)c3c2)c1O                  =     5.00
3  N#Cc1cccc(-c2ccc3ncc(-c4cccc(F)c4)c(N4CCC(N)CC4)c3c2)c1O                  <     5.00
4  NC1CCN(c2c(-c3cc(F)cc(F)c3)cnc3ccc(-c4cccc(F)c4O)cc23)CC1                  =     6.00

----------
# Measurement target: UniProt P31391
# Sequence (P31391 whole entry): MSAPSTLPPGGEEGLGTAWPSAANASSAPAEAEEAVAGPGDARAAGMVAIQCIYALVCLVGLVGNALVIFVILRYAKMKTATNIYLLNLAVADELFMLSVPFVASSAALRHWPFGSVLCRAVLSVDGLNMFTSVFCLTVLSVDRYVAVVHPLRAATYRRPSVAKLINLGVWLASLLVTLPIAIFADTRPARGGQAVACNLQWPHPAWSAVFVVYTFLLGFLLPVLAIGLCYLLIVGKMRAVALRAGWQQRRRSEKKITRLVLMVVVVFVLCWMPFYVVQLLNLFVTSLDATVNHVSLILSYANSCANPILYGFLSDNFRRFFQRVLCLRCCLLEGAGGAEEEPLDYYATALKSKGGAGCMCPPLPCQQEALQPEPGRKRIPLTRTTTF
# Protocol summary: Agonist activity at human SST4 receptor expressed in CHO-K1 cells assessed as inhibition of NKH477-induced intracellular cAMP accumulation incubated for 20 mins by HTRF assay
# Assay type: cell-based
pEC50: −log10 of the molar value.
Measure: pEC50

> print(dat)
                                   molecule  measure  comparison.symbol  reading
1  Cc1cc(F)cc(-c2cnc3ccc(-c4cccc(C#N)c4O)cc3c2N2CCC(N)CC2)c1    pEC50                  <     6.00
2  N#Cc1cccc(-c2ccc3ncc(-c4cccc(F)c4)c(N4CCC(N)CC4)c3c2)c1O    pEC50                  =     6.00
3  COc1cc(F)cc(-c2cnc3ccc(-c4cccc(C#N)c4O)cc3c2N2CCC(N)CC2)c1    pEC50                  <     6.00
4  N#Cc1cccc(-c2ccc3ncc(-c4cc(F)cc(F)c4)c(N4CCC(N)CC4)c3c2)c1O    pEC50                  =     6.00
5  NC1CCN(c2c(-c3cc(F)cc(F)c3)cnc3ccc(-c4cccc(O)c4)cc23)CC1    pEC50                  =     7.80
6  N#Cc1cc(F)cc(-c2ccc3ncc(-c4cc(F)cc(F)c4)c(N4CCC(N)CC4)c3c2)c1O    pEC50                  <     6.00
7  NC1CCN(c2c(-c3cc(F)cc(F)c3)cnc3ccc(-c4cccc(F)c4O)cc23)CC1    pEC50                  =     7.60

----------
# Protocol summary: in vivo
# Test parameters: Sprague-Dawley, rat, po, 10 mg/kg
Measure: AUC(0-inf) (ng·h/mL)

> print(dat)
                                   compound     measure  reading
1  N#Cc1cccc(-c2ccc3ncc(-c4cc(F)cc(F)c4)c(N4CCC(N)CC4)c3c2)c1O [PALTUSOTINE]  AUC(0-inf)     1610

----------
# Protocol summary: Half life in Beagle dog at 2.5 mg/kg, iv
# Test parameters: in vivo
Measure: half-life (h)

> print(dat)
                                   molecule    measure  unit.of.measurement  reading
1  N#Cc1cccc(-c2ccc3ncc(-c4cc(F)cc(F)c4)c(N4CCC(N)CC4)c3c2)c1O  half-life                    h      7.5

----------
# Measurement target: Somatostatin receptor type 2 (Canis lupus familiaris, UniProt Q49LX6)
# Sequence (Q49LX6 whole entry): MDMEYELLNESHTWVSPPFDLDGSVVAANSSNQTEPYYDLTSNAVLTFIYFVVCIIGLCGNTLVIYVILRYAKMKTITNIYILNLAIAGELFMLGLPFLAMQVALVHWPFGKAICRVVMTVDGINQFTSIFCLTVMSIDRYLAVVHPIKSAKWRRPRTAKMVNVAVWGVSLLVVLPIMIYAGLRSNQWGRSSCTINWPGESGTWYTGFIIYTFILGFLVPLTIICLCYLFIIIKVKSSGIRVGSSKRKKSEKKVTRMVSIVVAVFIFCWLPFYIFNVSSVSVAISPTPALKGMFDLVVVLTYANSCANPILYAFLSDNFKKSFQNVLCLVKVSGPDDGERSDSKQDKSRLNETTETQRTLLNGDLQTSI
# Protocol summary: Agonist activity at dog SST2 receptor
pEC50: −log10 of the molar value.
Measure: pEC50

> print(dat)
                                   molecule  measure  reading
1  N#Cc1cccc(-c2ccc3ncc(-c4cc(F)cc(F)c4)c(N4CCC(N)CC4)c3c2)c1O    pEC50     8.18

----------
# Protocol summary: Volume of distribution at steady state in Beagle dog at 2.5 mg/kg, iv
# Test parameters: in vivo
Measure: Vd

> print(dat)
                                   molecule  measure   reading
1  N#Cc1cccc(-c2ccc3ncc(-c4cc(F)cc(F)c4)c(N4CCC(N)CC4)c3c2)c1O       Vd  3.5 L/kg

----------
# Protocol summary: Volume of distribution at steady state in Sprague-Dawley rat at 2.5 mg/kg, iv
# Test parameters: in vivo
Measure: Vd (L/kg)

> print(dat)
                                   molecule  reading
1  N#Cc1cccc(-c2ccc3ncc(-c4cc(F)cc(F)c4)c(N4CCC(N)CC4)c3c2)c1O      1.5

----------
# Measurement target: Cytochrome P450 2C19 (Homo sapiens, UniProt P33261)
# Sequence (P33261 whole entry): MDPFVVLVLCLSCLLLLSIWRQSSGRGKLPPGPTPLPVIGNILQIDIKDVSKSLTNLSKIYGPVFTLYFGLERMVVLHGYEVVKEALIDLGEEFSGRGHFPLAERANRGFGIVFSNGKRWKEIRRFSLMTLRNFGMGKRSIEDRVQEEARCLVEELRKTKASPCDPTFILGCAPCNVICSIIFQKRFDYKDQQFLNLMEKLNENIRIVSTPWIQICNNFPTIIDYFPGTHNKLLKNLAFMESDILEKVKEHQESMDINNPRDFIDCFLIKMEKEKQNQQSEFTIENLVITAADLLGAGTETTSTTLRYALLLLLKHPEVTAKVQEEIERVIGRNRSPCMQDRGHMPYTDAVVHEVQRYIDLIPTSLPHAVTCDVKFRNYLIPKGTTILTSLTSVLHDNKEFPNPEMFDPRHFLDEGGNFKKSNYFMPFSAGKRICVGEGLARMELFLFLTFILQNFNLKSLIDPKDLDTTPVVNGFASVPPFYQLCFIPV
pIC50: −log10 of the molar value.
Measure: pIC50

> print(dat)
                                   molecule  reading
1  N#Cc1cc(F)cc(-c2ccc3ncc(-c4cc(F)cc(F)c4)c(N4CCC(N)CC4)c3c2)c1O     5.40

----------
pEC50: −log10 of the molar value.
Reported pEC50 for target or system Somatostatin receptor type 2 (Homo sapiens), by entry.
Measure: pEC50

> print(dat)
                                   molecule                        measurement.target  measure  reading
1  NC1CCN(c2c(-c3cc(F)cc(F)c3)cnc3ccc(-c4ccccc4O)cc23)CC1  Somatostatin receptor type 2 (Homo sapiens)    pEC50     8.47
2  NC1CCN(c2c(-c3cc(Cl)cc(Cl)c3)cnc3ccccc23)CC1  Somatostatin receptor type 2 (Homo sapiens)    pEC50     6.85
3  Cc1cc(F)cc(-c2cnc3ccc(-c4cccc(C#N)c4O)cc3c2N2CCC(N)CC2)c1  Somatostatin receptor type 2 (Homo sapiens)    pEC50     9.77
4  N#Cc1cc(F)cc(-c2ccc3ncc(-c4cc(F)cc(F)c4)c(N4CCC(N)CC4)c3c2)c1O  Somatostatin receptor type 2 (Homo sapiens)    pEC50     9.47
5  N#Cc1cccc(-c2ccc3ncc(-c4cc(F)cc(F)c4)c(N4CCC(N)CC4)c3c2)c1  Somatostatin receptor type 2 (Homo sapiens)    pEC50     8.85

----------
# Protocol summary: Clearance in Beagle dog at 2.5 mg/kg, iv
# Test parameters: in vivo
Measure: clearance

> print(dat)
                                   molecule        reading
1  N#Cc1cccc(-c2ccc3ncc(-c4cc(F)cc(F)c4)c(N4CCC(N)CC4)c3c2)c1O  9.4 mL/min/kg

----------
# Protocol summary: in vivo
# Test parameters: Sprague-Dawley, rat, po, 10 mg/kg
Measure: Cmax (ng/mL)

> print(dat)
                                   molecule  measure  reading
1  N#Cc1cccc(-c2ccc3ncc(-c4cc(F)cc(F)c4)c(N4CCC(N)CC4)c3c2)c1O     Cmax      129

Source of measurements: ChEMBL document CHEMBL5223164
